Entry source: patent US9650340B2

Tested on: HeLa, human cervical tumour cells
Assay: Proliferation assay, HeLa (crystal violet)
Assay type: cell-based
Conditions: 4 days, read-out: Inhibition of HeLa cell proliferation IC50
Collected pIC50 values appear next to each entry.
Please treat pIC50 as minus the base-10 logarithm of the molar concentration.

COc1cc(F)ccc1-c1cc(Nc2cc(CS(C)(=N)=O)ccn2)ncc1F (single isomer, unassigned; (+)) [Example 2]	6.96

input: What measured pIC50 goes with COc1cc(F)ccc1-c1cc(Nc2cc(CS(C)(=N)=O)cc(C(F)(F)F)n2)ncc1F (single isomer, unassigned; (-)) ?
output: 7.52

input: Then what about the compound CCOc1cc(F)ccc1-c1cc(Nc2cc(CS(C)(=N)=O)cc(F)n2)ncc1F (single isomer, unassigned; (-)) ?
output: 6.96
